Data origin, for the record: paper PMC6393240

- Target under test: T1, DnaD DDBH2 domain (residues 129–232) of Bacillus subtilis DnaD (Bacillus subtilis, UniProt P39787 129-232)
- T1 construct: DnaD, Bacillus subtilis, DDBH2 domain, residues 129-232; A residual N-terminal Gly-Ser-His remains after thrombin cleavage; 15N-labelled in the reverse titration; also called C-terminal DDBH2 domain; not shown: His tag, N-terminal, cleaved
- T1 sequence (looked up): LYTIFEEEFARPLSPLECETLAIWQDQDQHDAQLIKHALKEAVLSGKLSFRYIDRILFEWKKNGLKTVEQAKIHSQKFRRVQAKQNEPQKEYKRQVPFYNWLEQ
- Measurement protocol: NMR titration; reverse titration: unlabelled DnaA domain I titrated into 15N-labelled DnaD DDBH2 (100 μM) up to 8:1 excess; 50 mM potassium phosphate pH 7.4, 100 mM NaCl; 25°C; KD averaged over five residues
- Test parameters: both partners purified
Recorded endpoint: Kd (µM)
Value expressed in µM; do not type the unit.

Prompt: Tell me measured Kd for DnaA domain I (residues 1–81) of Bacillus subtilis DnaA (domain or fragment, UniProt P05648 1-81, looked up, DnaA, Bacillus subtilis, domain I, residues 1-81; After thrombin cleavage a residual N-terminal Gly-Ser-His leader remains; 15N-labelled (or 13C/15N) where it is the observed partner in NMR, unlabelled in the reverse titration; also called N-terminal domain I of DnaA; DnaA NTD; not shown: His tag, N-terminal, cleaved) MENILDLWNQALAQIEKKLSKPSFETWMKSTKAHSLQGDTLTITAPNEFARDWLESRYLHLIADTIYELTGEELSIKFVIP please.
Completion: 665
